Test system: seHAS
Experiment Notes: Effect of sulfhydryl reagents on seHAS activity in E. coli membranes
Type: biochemical, Streptococcus equisimilis
Settings: E. coli membranes with seHAS-H6, 4° C. 1 h; 5 mM NEM, 5 mM IAA, 0.5 mM 5,5′-dithiobis-(2-nitrobenzoic acid), 0.05 mM methylmethanethiosulfonate, 10 mM sodium arsenite
Kind request: treat 70% as inclusive, so Inhibition of HAS Activity (% relative to control), seHAS at 70% or higher is t, anything lower is f.

Has CSS(C)(=O)=O [Methylmethanethiosulfonate] a recorded Inhibition of HAS Activity (% relative to control), seHAS greater than or equal to 70%?
t

Others:
Given O=C(O)CI , state whether its Inhibition of HAS Activity (% relative to control), seHAS is at least 70%.
f

For this compound, is measured Inhibition of HAS Activity (% relative to control), seHAS 70% or higher? O=[As]O [Sodium Arsenite]
f

For this compound, is measured Inhibition of HAS Activity (% relative to control), seHAS 70% or higher? O=C(O)c1cc(SSc2ccc([N+](=O)[O-])c(C(=O)O)c2)ccc1[N+](=O)[O-]
f

====

Target Or System: spHAS (Streptococcus pyogenes serotype M6, UniProt Q5X9A9)
Construct: made in house; host or cells: E. coli SURE cells (isolated membranes)
Sequence (Q5X9A9 1-419): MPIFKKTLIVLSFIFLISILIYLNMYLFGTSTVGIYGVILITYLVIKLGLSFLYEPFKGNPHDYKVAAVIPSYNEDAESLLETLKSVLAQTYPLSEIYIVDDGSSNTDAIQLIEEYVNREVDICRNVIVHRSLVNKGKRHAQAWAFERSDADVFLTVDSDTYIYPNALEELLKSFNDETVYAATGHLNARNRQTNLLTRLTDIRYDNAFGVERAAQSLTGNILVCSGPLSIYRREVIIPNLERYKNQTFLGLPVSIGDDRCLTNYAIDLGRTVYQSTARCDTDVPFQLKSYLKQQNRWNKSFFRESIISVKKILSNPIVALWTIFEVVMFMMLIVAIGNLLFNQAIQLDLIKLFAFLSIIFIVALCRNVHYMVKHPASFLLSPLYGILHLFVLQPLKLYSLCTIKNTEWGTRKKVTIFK
Experiment Notes: Effect of sulfhydryl reagents on spHAS activity in E. coli membranes
Assay type: biochemical
Settings: E. coli membranes with spHAS-H6, 4° C. 1 h; 5 mM NEM, 5 mM IAA, 0.5 mM 5,5′-dithiobis-(2-nitrobenzoic acid), 0.05 mM methylmethanethiosulfonate, 10 mM sodium arsenite
Readout Type: Inhibition of HAS Activity (% relative to control), spHAS (%)
Give just the number in %; leave the unit off.

Field: example entries. Status: answers known.
What is its Inhibition of HAS Activity (% relative to control), spHAS for spHAS (Streptococcus pyogenes serotype M6, UniProt Q5X9A9)? Entry: O=C(O)c1cc(SSc2ccc([N+](=O)[O-])c(C(=O)O)c2)ccc1[N+](=O)[O-] [5,5′-dithiobis-(2-nitrobenzoic acid)]
52

spHAS (Streptococcus pyogenes serotype M6, UniProt Q5X9A9) / Inhibition of HAS Activity (% relative to control), spHAS / CCN1C(=O)C=CC1=O [N-ethylmaleimide] : value?
60

Under spHAS (Streptococcus pyogenes serotype M6, UniProt Q5X9A9): Inhibition of HAS Activity (% relative to control), spHAS value of CSS(C)(=O)=O [Methylmethanethiosulfonate] ?
89

Shift focus to the following entry.
What Inhibition of HAS Activity (% relative to control), spHAS appears in the records for this molecule with spHAS (Streptococcus pyogenes serotype M6, UniProt Q5X9A9)? O=C(O)CI [Iodacetic acid]
13
